system_under_test: GLS1 (purified recombinant human GAC) (Homo sapiens, UniProt O94925)
Sequence (O94925 55-598 isoform O94925-3 limits assumed): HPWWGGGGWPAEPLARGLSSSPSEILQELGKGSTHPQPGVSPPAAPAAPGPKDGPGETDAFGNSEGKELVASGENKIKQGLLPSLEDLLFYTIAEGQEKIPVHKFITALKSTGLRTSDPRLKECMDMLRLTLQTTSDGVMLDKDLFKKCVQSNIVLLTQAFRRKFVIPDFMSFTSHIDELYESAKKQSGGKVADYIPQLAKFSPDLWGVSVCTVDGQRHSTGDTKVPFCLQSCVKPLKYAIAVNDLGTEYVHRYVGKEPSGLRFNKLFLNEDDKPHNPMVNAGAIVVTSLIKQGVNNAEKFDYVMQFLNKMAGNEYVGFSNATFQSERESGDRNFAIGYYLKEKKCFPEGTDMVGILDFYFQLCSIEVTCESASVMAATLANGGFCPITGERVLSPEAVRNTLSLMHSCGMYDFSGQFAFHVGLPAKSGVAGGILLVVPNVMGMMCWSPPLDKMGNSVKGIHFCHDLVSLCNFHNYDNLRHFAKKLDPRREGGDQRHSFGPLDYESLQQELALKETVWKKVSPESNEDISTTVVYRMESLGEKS
measurement_protocol: GLS1 enzymatic activity assay (dual-coupled, Amplex UltraRed/resorufin)
Recorded measurements of IC50, one per entry

* CC1CN(CC(=O)Nc2ccn(CCC(F)Cn3cc(C(=O)NCc4cccc(OC(F)(F)F)c4)nn3)c(=O)c2)CCO1 (stereo not shown) | < 100 nM

Entry O=C(Cc1cccc(OC(F)(F)F)c1)Nc1ccc(CCCCn2ccc(NC(=O)[C@H](O)c3ccccc3)nc2=O)nn1 under GLS1 (purified recombinant human GAC) (Homo sapiens, UniProt O94925) had IC50 of < 100 nM

Per the reported GLS1 (purified recombinant human GAC) (Homo sapiens, UniProt O94925) data, COCCNC(=O)c1nnc(CCCCn2ccc(NC(=O)Cc3cccc(OC(F)(F)F)c3)cc2=O)s1 has IC50 of 100 to 500 nM

Tested on GLS1 (purified recombinant human GAC) (Homo sapiens, UniProt O94925), the item O=C(NCc1cccc(OC(F)(F)F)c1)c1cn(CC(F)CCn2ccc(COc3cccc(Cl)c3)cc2=O)nn1 (stereo not shown) showed IC50 equal to < 100 nM

Data provenance: patent US20160002204A1
